- target entity: cysteines in MDA-MB-231 and Ramos cells (Homo sapiens, UniProt Q8NFH5)
- Sequence (Q8NFH5 1-326): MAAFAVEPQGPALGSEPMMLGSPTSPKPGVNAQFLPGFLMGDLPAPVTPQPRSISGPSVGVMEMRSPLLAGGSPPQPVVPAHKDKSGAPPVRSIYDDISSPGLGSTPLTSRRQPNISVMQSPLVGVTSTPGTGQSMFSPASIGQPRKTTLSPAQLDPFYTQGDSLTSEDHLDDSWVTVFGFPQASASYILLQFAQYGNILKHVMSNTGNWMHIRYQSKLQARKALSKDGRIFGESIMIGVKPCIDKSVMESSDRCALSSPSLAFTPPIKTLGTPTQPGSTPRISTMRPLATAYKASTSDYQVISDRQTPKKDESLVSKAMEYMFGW
- protocol text: Competitive isoTOP-ABPP in situ (fragment-treated cells)
- Assay type: cell-based
- condition set: 200 μM, insitu, 231
# strict inequality: isoTOP-ABPP ratio Q8NFH5_C255 < 2 yields Fulfilled, everything else yields Not fulfilled

# count of solved cases: 2
>>> df
                                   molecule      group
0  O=C(CCl)NC12CC3CC(CC(C3)C1)C2 [compound 21]  Fulfilled
1  Cc1ccc(C=C(C#N)C(=O)NCCN2CCOCC2)cc1 [compound 41]  Fulfilled

--- query ---
Task item: Decide: isoTOP-ABPP ratio Q8NFH5_C255 of O=C(CCl)N1CCN(S(=O)(=O)c2ccccc2F)CC1 [compound 10] strictly below 2?
Reply: Not fulfilled

----------
- target entity: cysteines in MDA-MB-231 and Ramos cells (Homo sapiens, UniProt Q9HCC0)
- Sequence (Q9HCC0 23-563): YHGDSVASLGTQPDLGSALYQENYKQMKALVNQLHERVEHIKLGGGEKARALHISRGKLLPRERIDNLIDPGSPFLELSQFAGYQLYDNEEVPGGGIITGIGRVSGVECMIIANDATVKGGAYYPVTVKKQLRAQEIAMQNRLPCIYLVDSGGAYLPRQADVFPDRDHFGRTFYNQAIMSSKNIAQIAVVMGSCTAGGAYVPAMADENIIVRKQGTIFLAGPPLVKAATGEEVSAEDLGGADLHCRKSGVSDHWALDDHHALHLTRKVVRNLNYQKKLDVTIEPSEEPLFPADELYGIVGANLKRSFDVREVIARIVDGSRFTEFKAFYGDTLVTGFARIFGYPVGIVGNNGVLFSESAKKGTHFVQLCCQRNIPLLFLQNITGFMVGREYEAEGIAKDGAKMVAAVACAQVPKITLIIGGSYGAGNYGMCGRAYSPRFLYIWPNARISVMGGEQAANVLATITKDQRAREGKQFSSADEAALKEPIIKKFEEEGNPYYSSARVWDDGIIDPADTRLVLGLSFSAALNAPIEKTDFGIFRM
- protocol text: Competitive isoTOP-ABPP in situ (fragment-treated cells)
- Type: cell-based
- condition set: 200 μM, insitu, 231
# binarize isoTOP-ABPP ratio Q9HCC0_C216: threshold 2 inclusive, high side 1.0, low side 0.0

# count of solved cases: 5
                               compound  group
0   O=C(CCl)NC(=O)NC12CC3CC(CC(C3)C1)C2    1.0
1               O=C(CCl)Nc1cccc2ncccc12    0.0
2         O=C(CCl)NC12CC3CC(CC(C3)C1)C2    1.0
3  O=C(CCl)N1CCN(S(=O)(=O)c2ccccc2F)CC1    1.0
4   Cc1ccc(C=C(C#N)C(=O)NCCN2CCOCC2)cc1    0.0

Task item: Could you tell me if the measured isoTOP-ABPP ratio Q9HCC0_C216 of "CC(C)CCOCCNC(=O)CCl" reaches 2 or more?
Reply: 0.0

Task item: Could you tell me if the measured isoTOP-ABPP ratio Q9HCC0_C216 of CC1CCc2ccccc2N1C(=O)CCl (stereo not shown) reaches 2 or more?
Reply: 1.0

Origin of values: patent US10670605B2
